target-under-test: human NTCP (Homo sapiens, UniProt Q14973)
Sequence (Q14973 whole entry): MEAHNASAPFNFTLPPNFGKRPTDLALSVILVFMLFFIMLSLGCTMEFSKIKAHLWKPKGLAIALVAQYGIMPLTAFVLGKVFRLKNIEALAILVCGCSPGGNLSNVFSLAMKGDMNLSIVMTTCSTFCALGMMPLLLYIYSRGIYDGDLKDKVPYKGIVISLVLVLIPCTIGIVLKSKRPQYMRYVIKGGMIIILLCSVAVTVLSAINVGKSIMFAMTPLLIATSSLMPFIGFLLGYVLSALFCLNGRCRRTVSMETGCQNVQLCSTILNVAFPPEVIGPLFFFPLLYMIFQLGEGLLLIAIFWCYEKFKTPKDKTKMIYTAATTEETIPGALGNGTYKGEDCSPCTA
assay-comment: Screening taurocholate uptake assay (96-well, [14C]taurocholate, 10 µM drug)
cond: Prestwick library screen, 10 µM drug; B-score of taurocholate uptake
Structures can show the parent of a compound that is named as a salt.
Criterion: B-score functional assay meeting or surpassing 0.09. Met: satisfied. Not met: not satisfied.

compound	assigned-class
C[C@]12CC[C@@H]3c4ccc(O)cc4CC[C@H]3[C@@H]1CCC2=O [Estrone]	not satisfied
Cc1ccnc(NS(=O)(=O)c2ccc(N)cc2)n1 [Sulfamerazine]	satisfied
CN1CCCN(C(c2ccccc2)c2ccc(Cl)cc2)CC1.Cl.Cl (stereo not shown) [Homochlorcyclizine dihydrochloride]	satisfied
NC[C@@H]1O[C@H](O[C@H]2[C@@H](O)[C@H](O[C@@H]3[C@@H](O)[C@H](N)C[C@H](N)[C@H]3O[C@H]3O[C@H](CO)[C@@H](O)[C@H](O)[C@H]3N)O[C@@H]2CO)[C@H](N)[C@@H](O)[C@@H]1O [Paromomycin sulfate]	satisfied
CCC(C)n1ncn(-c2ccc(N3CCN(c4ccc(OCC5COC(Cn6cncn6)(c6ccc(Cl)cc6Cl)O5)cc4)CC3)cc2)c1=O (stereo not shown) [Itraconazole]	not satisfied
COC(=O)N/N=C/c1c[n+]([O-])c2ccccc2[n+]1[O-] [Carbadox]	satisfied

----------
Overview of reported B-score functional assay across a group of compounds:
target-under-test: human NTCP (Homo sapiens, UniProt Q14973)
assay-comment: Screening taurocholate uptake assay (96-well, [14C]taurocholate, 10 µM drug)
cond: screening taurocholate uptake, 10 µM drug
Where a name gives a salt, the structure may show the parent alone.

compound	target-under-test	B-score functional assay
CC(=O)[C@H]1CC[C@H]2[C@@H]3CCC4=CC(=O)CC[C@]4(C)[C@H]3CC[C@]12C	human NTCP (Homo sapiens, UniProt Q14973)	0.628
CC1(C)S[C@@H]2[C@H](NC(=O)[C@H](N)c3ccccc3)C(=O)N2[C@H]1C(=O)O [Ampicillin trihydrate]	human NTCP (Homo sapiens, UniProt Q14973)	-0.594
C[N+]1(C)CCOC(O)(c2ccc(-c3ccc(C4(O)C[N+](C)(C)CCO4)cc3)cc2)C1.[Br-].[Br-] (stereo not drawn) [Hemicholinium bromide]	human NTCP (Homo sapiens, UniProt Q14973)	-3
CC(=O)Oc1ccccc1C(=O)Nc1ncc([N+](=O)[O-])s1 [Nitazoxanide]	human NTCP (Homo sapiens, UniProt Q14973)	-2.727
O=c1[nH]c2ccccc2n1C1CCN(CCCC(c2ccc(F)cc2)c2ccc(F)cc2)CC1 [Pimozide]	human NTCP (Homo sapiens, UniProt Q14973)	-2.417
CN(C)CCC(c1ccc(Br)cc1)c1ccccn1 (stereo not drawn) [Brompheniramine maleate]	human NTCP (Homo sapiens, UniProt Q14973)	-0.661
CN(Cc1cnc2nc(N)nc(N)c2n1)c1ccc(C(=O)N[C@@H](CCC(=O)O)C(=O)O)cc1 (racemic) [Amethopterin (R,S)]	human NTCP (Homo sapiens, UniProt Q14973)	-0.795
CC[C@@]1([C@H]2O[C@H]([C@H]3O[C@@](O)(CO)[C@H](C)C[C@@H]3C)C[C@H]2C)CC[C@H]([C@@]2(C)CC[C@]3(C[C@H](O)[C@@H](C)[C@@H]([C@H](C)[C@H](OC)[C@@H](C)C(=O)[O-])O3)O2)O1.[Na+] [Monensin sodium salt]	human NTCP (Homo sapiens, UniProt Q14973)	-1.407
Nc1cc(N2CCCCC2)nc(N)[n+]1[O-]	human NTCP (Homo sapiens, UniProt Q14973)	-3.894
CCN(CC)CCOC(=O)C(Cc1cccc2ccccc12)CC1CCCO1 (stereo not drawn) [Nafronyl oxalate]	human NTCP (Homo sapiens, UniProt Q14973)	-1.268
Cc1c(Cl)cccc1Nc1ccccc1C(=O)O	human NTCP (Homo sapiens, UniProt Q14973)	-4.169
O=C(O)c1ccccc1Nc1cccc(C(F)(F)F)c1	human NTCP (Homo sapiens, UniProt Q14973)	-5.588
O=c1c2ccccc2[se]n1-c1ccccc1	human NTCP (Homo sapiens, UniProt Q14973)	-4.734
O=C(O)CCCc1ccc(N(CCCl)CCCl)cc1	human NTCP (Homo sapiens, UniProt Q14973)	-1.869
CN(C)CCn1nnnc1SCC1=C(C(=O)O)N2C(=O)[C@@H](NC(=O)Cc3csc(N)n3)[C@H]2SC1 [Cefotiam hydrochloride]	human NTCP (Homo sapiens, UniProt Q14973)	1.511
